System: AKAP-Lbc mediated RhoA/SRF activation
Test Name: Dual luciferase SRE reporter assay, AKAP-Lbc transfected HEK293
Format: cell-based
Condition Label: Homo sapiens

Item Smiles | IC50
COc1ccc(-c2coc3cc4oc(=O)c(C)c(C)c4cc23)cc1 | ~25 µM

###

Target Or System: AKAP-Lbc (guanine nucleotide exchange on RhoA) (Homo sapiens, UniProt Q12802)
Sequence (Q12802 1994-2333): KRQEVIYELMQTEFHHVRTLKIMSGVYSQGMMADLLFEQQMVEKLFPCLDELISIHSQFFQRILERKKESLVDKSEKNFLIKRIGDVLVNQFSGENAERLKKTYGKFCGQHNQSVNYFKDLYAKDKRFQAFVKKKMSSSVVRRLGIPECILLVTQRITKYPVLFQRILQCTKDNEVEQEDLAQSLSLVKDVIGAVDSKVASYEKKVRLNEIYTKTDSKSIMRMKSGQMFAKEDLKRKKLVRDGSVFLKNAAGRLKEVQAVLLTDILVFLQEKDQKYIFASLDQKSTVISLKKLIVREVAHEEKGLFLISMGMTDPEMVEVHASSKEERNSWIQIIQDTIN

Compound | IC50
CCCCc1cc(=O)oc2cc3occ(-c4ccc(OC)cc4)c3cc12 [Compound 31892] | 78.9 µM
COc1ccc(-c2coc3cc4oc(=O)c(C)c(C)c4cc23)cc1 [Compound 31413] | 25.9 µM
